Measured target: Recombinant (1-346) HPK1 (h) (Homo sapiens, UniProt Q92918)
Construct: Recombinant (1-346) HPK1 (h) is incubated with 8 mM MOPS pH 7.0
Sequence (Q92918 1-346): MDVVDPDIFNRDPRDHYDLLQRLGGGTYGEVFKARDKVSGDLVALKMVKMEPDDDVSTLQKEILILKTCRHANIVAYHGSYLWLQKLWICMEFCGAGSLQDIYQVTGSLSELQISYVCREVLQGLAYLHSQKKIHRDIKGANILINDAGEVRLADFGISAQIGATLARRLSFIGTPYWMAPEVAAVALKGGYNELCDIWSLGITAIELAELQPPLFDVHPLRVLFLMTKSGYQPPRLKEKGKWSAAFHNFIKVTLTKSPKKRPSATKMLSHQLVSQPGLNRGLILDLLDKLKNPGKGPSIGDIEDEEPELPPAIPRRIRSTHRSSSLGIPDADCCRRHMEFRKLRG
Protocol notes: HPK1 Human STE Kinase Enzymatic Radiometric Assay
Format: biochemical
Test context: read-out: HPK1 IC50 nM Range*
Quick reference for IC50 among some molecules

Molecule	Measured attribute	Result
CCN1CCOCC1c1ccc(-c2cc(-c3ccc4c(c3)CCNC4=O)c(N)nc2F)cc1 (centres unmarked)	IC50	0.1 to 10 nM

Enquiry: What does the data say about its IC50? Entry: Nc1nc(F)c(-c2ccc(N3CCN(CCCC(F)F)CC3)cc2)cc1-c1ccc2c(c1)CCNC2=O
Return: 0.1 to 10 nM

Enquiry: Same question, Nc1nc(F)c(-c2ccc(C3=CCOCC3)cc2C2CNC(=O)C2)cc1-c1cc2c(cc1F)C(=O)NCC2 (centres unmarked) this time
Return: > 1000 nM

Enquiry: Next molecule: CC(C)(C)OC(=O)N1CC=C(c2ccc(-c3cc(-c4ccc5c(c4)CCNC5=O)c(N)nc3F)cc2)CC1
Return: 11 to 100 nM

Enquiry: // repeat for CNc1cc(-c2cc(-c3ccc(N4CCN(C(C)C)CC4)cc3)c(F)nc2N)cc2c1C(=O)NCC2 and report
Return: 11 to 100 nM

Enquiry: Would you mind doing Nc1nc(F)c(-c2ccc(C3CCN(CCO)CC3)cc2)cc1-c1ccc2c(c1)CCNC2=O as well?
Return: 0.1 to 10 nM

Enquiry: // same read-out, input: CCN1CCN(c2ccc(-c3cc(-c4ccc5c(c4)CCNC5=O)c(N)nc3F)cc2)CC1
Return: 0.1 to 10 nM

Enquiry: Now try CN1CCN(c2ccc(-c3cc(-c4ccc5c(c4)CCNC5=O)c(N)nc3F)cc2C(F)(F)F)CC1 .
Return: 0.1 to 10 nM

Enquiry: Note, next up: CC(C)N1CCN(c2ccc(-c3cc(-c4cc5c(c(N(C)C)c4)C(=O)NCC5)c(N)nc3F)cc2)CC1
Return: 101 to 1000 nM

Enquiry: Also Nc1nc(F)c(-c2ccc(OC3CCN(CC(F)(F)F)CC3)c(C(F)(F)F)c2)cc1-c1ccc2c(c1)CCNC2=O ?
Return: 101 to 1000 nM

Enquiry: Record: Nc1nc(F)c(-c2ccc(N3CCN(CC4CC4)CC3)cc2)cc1-c1cc(F)c2c(=O)[nH]cnc2c1
Return: 0.1 to 10 nM

Enquiry: Queued: Nc1nc(F)c(-c2ccc(C3CCOCC3)c([C@@H]3CCCN3)c2)cc1-c1ccc2c(=O)[nH]ccc2c1
Return: 0.1 to 10 nM

Enquiry: Ok, now C[C@@H]1CCCN1c1ccc(-c2cc(-c3ccc4c(c3)CCNC4=O)c(N)nc2F)cc1
Return: 11 to 100 nM

Enquiry: Another: CC(C)N1CCC(C)(c2ccc(-c3cc(-c4ccc5c(c4)CCNC5=O)c(N)nc3F)cc2)C1 (centres unmarked)
Return: 0.1 to 10 nM

###

The following compounds are listed with their measured IC50 values.
Measured target: Recombinant (1-346) HPK1 (h) (Homo sapiens, UniProt Q92918)
Construct: Recombinant (1-346) HPK1 (h) is incubated with 8 mM MOPS pH 7.0
Protocol notes: HPK1 Human STE Kinase Enzymatic Radiometric Assay
Type: biochemical
Test context: read-out: HPK1 IC50 nM Range*

Enquiry: Data request, read-out IC50, for CC(C)(O)CN1C[C@@H]2C[C@]2(c2ccc(-c3cc(-c4ccc5c(c4)CCNC5=O)c(N)nc3F)cc2)C1
Return: 0.1 to 10 nM

Enquiry: Here is the next compound: COCCN(C)Cc1cc(-c2cc(-c3cc4c(cc3F)C(=O)NCC4)c(N)nc2F)ccc1N1CCOCC1
Return: 11 to 100 nM

Enquiry: Same thing, different compound: COc1ccc(-c2cc(-c3cc4c(cc3F)C(=O)NCC4)c(N)nc2F)cc1CN1CCC(OC)CC1
Return: 11 to 100 nM

Enquiry: Then what about the compound CC(C)[C@@H]1CN(c2ccc(-c3cc(-c4ccc5c(c4)CCNC5=O)c(N)nc3F)cc2)CCN1C ?
Return: 0.1 to 10 nM

Enquiry: Another compound to check: Nc1nc(F)c(-c2ccc(S(=O)(=O)N3CCOCC3)cc2)cc1-c1ccc2c(c1)CCNC2=O
Return: 11 to 100 nM

###

In this section we review reported IC50 values for a set of compounds.
Measured target: Recombinant (1-346) HPK1 (h) (Homo sapiens, UniProt Q92918)
Construct: Recombinant (1-346) HPK1 (h) is incubated with 8 mM MOPS pH 7.0
Protocol notes: HPK1 Human STE Kinase Enzymatic Radiometric Assay
Assay type: biochemical
Test context: read-out: HPK1 IC50 nM Range*

Compound	Result
COCCN1CCc2cc(-c3cc(-c4cc5c(cc4F)C(=O)NCC5)c(N)nc3F)ccc2C1	0.1 to 10 nM
CCN(C)Cc1cc(-c2cc(-c3cc4c(cc3F)C(=O)NCC4)c(N)nc2F)ccc1C1CCOCC1	11 to 100 nM
Nc1nc(F)c(-c2ccc3c(c2)CCC2(CCN(CC(F)(F)F)CC2)O3)cc1-c1ccc2c(c1)CCNC2=O	11 to 100 nM
CC(C)N1CCN(c2ccc(-c3cc(-c4cc5c(F)c[nH]c(=O)c5cc4F)c(N)nc3F)cc2)CC1	0.1 to 10 nM
Nc1nc(F)c(-c2ccc(C3CN(CC(F)F)CCO3)cc2)cc1-c1ccc2c(c1)CCNC2=O (centres unmarked)	11 to 100 nM
COc1c[nH]c(=O)c2ccc(-c3cc(-c4ccc(N5CCN(C(C)C)CC5)cc4)c(F)nc3N)cc12	0.1 to 10 nM
CN(Cc1cc(-c2cc(-c3cc4c(cc3F)C(=O)NCC4)c(N)nc2F)ccc1N1CCOCC1)CC1CCCO1 (centres unmarked)	11 to 100 nM
Nc1nc(F)c(-c2ccc(C3=CCOCC3)cc2CO)cc1-c1cc2c(cc1F)C(=O)NCC2	101 to 1000 nM

Enquiry: Form field: reported IC50 of CN1CCN(C(=O)c2ccc(-c3cc(-c4ccc5c(c4)CCNC5=O)c(N)nc3F)cc2)CC1
Return: 11 to 100 nM

Enquiry: Next compound up: CN1CCN(c2ccc(-c3cnc(N)c(-c4ccc5c(c4)CCNC5=O)c3F)cc2)CC1
Return: 11 to 100 nM

Enquiry: Another compound: Cc1nc2cc(-c3cc(-c4ccc(C5CCOCC5)c([C@@H]5CCCN5)c4)c(F)nc3N)ccc2c(=O)[nH]1
Return: 11 to 100 nM

Enquiry: Another compound to check: CC(C)N1CCN(c2ccc(-c3cc(-c4cc5c(cc4F)C(=O)NCC5)c(N)nc3F)cc2)CC1
Return: 0.1 to 10 nM

Enquiry: And then Nc1nc(F)c(-c2ccc(C3COCCN3C3COC3)cc2)cc1-c1ccc2c(c1)CCNC2=O (centres unmarked) , what is it?
Return: 11 to 100 nM

Enquiry: // next record CN1[C@@H]2CC[C@H]1CN(c1ccc(-c3cc(-c4ccc5c(c4)CCNC5=O)c(N)nc3F)cc1)C2
Return: 0.1 to 10 nM

Enquiry: Field entry: CNCC1Cc2cc(-c3cc(-c4ccc(Cl)cc4)c(F)nc3N)ccc2C(=O)N1 (centres unmarked)
Return: 11 to 100 nM

Enquiry: Same again, this time with CN1C[C@@H]2C[C@]2(c2ccc(-c3cc(-c4cc(F)c5c(c4)CCNC5=O)c(N)nc3F)cc2)C1
Return: 0.1 to 10 nM

Enquiry: Follow-up item: C[C@@H]1CN(c2ccc(-c3cc(-c4ccc5c(c4)CCNC5=O)c(N)nc3F)cc2)C[C@H](C)N1C
Return: 0.1 to 10 nM

###

Measured target: Recombinant (1-346) HPK1 (h) (Homo sapiens, UniProt Q92918)
Construct: Recombinant (1-346) HPK1 (h) is incubated with 8 mM MOPS pH 7.0
Protocol notes: HPK1 Human STE Kinase Enzymatic Radiometric Assay
Format: biochemical
Test context: read-out: HPK1 IC50 nM Range*
Measured IC50 values are reported for all entries that follow.

Molecule	Result
CN1CCN(c2ccc(-c3cc(-c4ccc5c(c4)CCNC5=O)c(N)nc3F)cc2F)CC1	0.1 to 10 nM
COCCN(C)Cc1nc(-c2cc(-c3ccc4c(c3)CCNC4=O)c(N)nc2F)ccc1N1CCOCC1	0.1 to 10 nM
Nc1nc(F)c(-c2ccc(N3CCOCC3)cn2)cc1-c1ccc2c(c1)CCNC2=O	0.1 to 10 nM
CC(C)(C)OC(=O)N1CCC(Oc2ccc(-c3cc(-c4ccc5c(c4)CCNC5=O)c(N)nc3F)cc2C#N)CC1	11 to 100 nM
CN1C=NN(c2ccc(-c3cc(-c4ccc5c(c4)CCNC5=O)c(N)nc3F)cc2)CC1	0.1 to 10 nM

Enquiry: GET /values?readout=IC50&item= CC(C)N1CCN(c2ccc(-c3cc(-c4ccc5c(=O)[nH]c(N)nc5c4)c(N)nc3F)cc2)CC1
Return: 0.1 to 10 nM

Enquiry: Then what about the molecule C[C@@H]1CCCN1c1ccc(-c2cc(-c3ccc4c(c3)CCNC4=O)c(N)nc2F)c(F)c1 ?
Return: 11 to 100 nM

Enquiry: For Cc1cc(-c2cc(-c3cc4c(cc3F)C(=O)NCC4)c(N)nc2F)ccn1 then?
Return: 11 to 100 nM

Enquiry: Now this one: COC1(C)NC(=O)c2ccc(-c3cc(-c4ccc(N5CCN(C(C)C)CC5)cc4)c(F)nc3N)cc2C1(F)F (stereo not shown)
Return: 11 to 100 nM

Enquiry: What about this molecule? Nc1nc(F)c(-c2ccc(N3CCN(CC4CC4)CC3)cc2)cc1-c1cc(F)c2c(=O)[nH]cc(F)c2c1
Return: 0.1 to 10 nM

Enquiry: Try this molecule next: CCN1CC=C(c2ccc(-c3cc(-c4ccc5c(c4)CCNC5=O)c(N)nc3F)cc2)C1
Return: 0.1 to 10 nM

Enquiry: Param item: CO[C@H]1CCN(Cc2nc(-c3cc(-c4cc5c(cc4F)C(=O)NCC5)c(N)nc3F)ccc2N2CCOCC2)C1
Return: 0.1 to 10 nM

Enquiry: Similarly, COC1CCN(Cc2cc(-c3cc(-c4ccc5c(c4)CCNC5=O)c(N)nc3F)ccc2N2CCOCC2)C1 (stereo not shown) ?
Return: 11 to 100 nM

Enquiry: Same question, Cc1nc2cc(-c3cc(-c4ccc(N5CCN(C6CCC6)CC5)cc4)c(F)nc3N)cc(F)c2c(=O)[nH]1 this time
Return: 0.1 to 10 nM

Enquiry: And for CC(=O)N1CCC(Oc2ccc(-c3cc(-c4ccc5c(c4)CCNC5=O)c(N)nc3F)cc2CN(C)C)CC1 ?
Return: 0.1 to 10 nM

Enquiry: Try CN1CCN(c2ccc(-c3cc(-c4ccc5c(c4)CCNC5=O)c(N)nc3Cl)cc2)CC1 next.
Return: 11 to 100 nM

Enquiry: Same again, this time with CN1CC=C(c2ccc(-c3cc(-c4cc5c(cc4F)C(=O)NCC5)c(N)nc3Cl)cc2)CC1
Return: 11 to 100 nM

Enquiry: Next molecule up: CC(C)[C@H]1CN(c2ccc(-c3cc(-c4ccc5c(c4)CCNC5=O)c(N)nc3F)c(F)c2)CCO1
Return: 11 to 100 nM

Enquiry: Would you mind doing COc1ccc(-c2cc(-c3ccc4c(c3)CCNC4=O)c(N)nc2F)cc1CN(C)C as well?
Return: 11 to 100 nM

Enquiry: Same again, this time with CN(C)Cc1cc(-c2cc(-c3ccc4c(c3)CCNC4=O)c(N)nc2F)ccc1N1CCS(=O)(=O)CC1
Return: 11 to 100 nM

Enquiry: Also Nc1nc(F)c(-c2ccnc(OCC3CC3)c2)cc1-c1cc2c(cc1F)C(=O)NCC2 ?
Return: 101 to 1000 nM

Enquiry: Same lookup for CCN1CCCCC1c1ccc(-c2cc(-c3ccc4c(c3)CCNC4=O)c(N)nc2F)cc1 (stereo not shown) , please.
Return: 0.1 to 10 nM
